Cited source for all entries: patent US20250388575A1

# System: T47D cells
# TEST METHOD NOTES: Cellular growth inhibition assay for T47D cells, CellTiter-Glo
# Assay type: cell-based, human
# CONDITION: 72 hours treatment, CellTiter-Glo 2.0

{"SMILES NOTATION": "CCS(=O)(=O)c1ccc(Oc2ccc(C3CC4(CCN(c5ccc(C(=O)N[C@H]6CC[C@H](Oc7ccc(C#N)c(Cl)c7)CC6)nn5)CC4)C3)cc2)c(-c2cn(C)c(=O)c3[nH]ccc23)c1", "GI50": "< 0.5 µM"}
{"SMILES NOTATION": "CCS(=O)(=O)c1ccc(Oc2ccc(CCC3CCN(c4ccc(C(=O)N[C@H]5CC[C@H](Oc6ccc(C#N)c(Cl)c6)CC5)nn4)CC3)c(C(F)(F)F)c2)c(-c2cn(C)c(=O)c3[nH]ccc23)c1", "GI50": "< 0.5 µM"}
{"SMILES NOTATION": "CN(CCCc1ccc(Oc2ccc(C(C)(C)O)cc2-c2cn(C)c(=O)c3[nH]ccc23)cc1)c1ccc(C(=O)N[C@H]2CC[C@H](Oc3ccc(C#N)c(Cl)c3)CC2)nn1", "GI50": "1.5 to 3 µM"}
{"SMILES NOTATION": "Cn1cc(-c2cc(C(C)(C)O)ccc2Oc2ccc(CCCC3CN(c4ccc(C(=O)N[C@H]5CC[C@H](Oc6ccc(C#N)c(Cl)c6)CC5)nn4)C3)cc2)c2cc[nH]c2c1=O", "GI50": "< 0.5 µM"}
{"SMILES NOTATION": "Cn1cc(-c2cc(C(C)(C)O)ccc2Oc2ccc(CCC3CCN(c4ccc(C(=O)N[C@H]5CC[C@H](Oc6ccc(C#N)c(Cl)c6)CC5)nn4)CC3)c(F)c2F)c2cc[nH]c2c1=O", "GI50": "0.5 to 1.5 µM"}

###

# STUDY SYSTEM: BRD4-BD1 (Homo sapiens (Human), UniProt O60885)
# TEST METHOD NOTES: bromoKdELECT assay for binding affinity to BRD4-BD1
# CONDITION: 11-point 3-fold dilution
pKd: −log10 of the molar value.
METRIC: pKd

{"SMILES NOTATION": "CCS(=O)(=O)Nc1ccc(Oc2ccc(CCOC3CCN(c4ccc(C(=O)N[C@H]5CC[C@H](Oc6ccc(C#N)c(Cl)c6)CC5)nn4)CC3)cc2)c(-c2cn(C)c(=O)c3[nH]ccc23)c1", "ENDPOINT VALUE": "> 7.30"}
{"SMILES NOTATION": "Cn1cc(-c2cc(C(C)(C)O)ccc2O[C@H]2C[C@H](N(C)CC3CCN(c4ccc(C(=O)N[C@H]5CC[C@H](Oc6ccc(C#N)c(Cl)c6)CC5)nn4)CC3)C2)c2cc[nH]c2c1=O", "ENDPOINT VALUE": "6.30 to 7.30"}
{"SMILES NOTATION": "CCS(=O)(=O)c1ccc(Oc2ccc(CCC3CCN(c4ccc(C(=O)N[C@H]5CC[C@H](Oc6ccc(C#N)c(Cl)c6)CC5)nn4)CC3)cc2)c(-c2cn(C)c(=O)c3[nH]ccc23)c1", "ENDPOINT VALUE": "6.30 to 7.30"}
{"SMILES NOTATION": "CCS(=O)(=O)Cc1ccc(Oc2cccc(CCCOC3CCN(c4ccc(C(=O)N[C@H]5CC[C@H](Oc6ccc(C#N)c(Cl)c6)CC5)nn4)CC3)c2F)c(-c2cn(C)c(=O)c3[nH]ccc23)c1", "ENDPOINT VALUE": "6.30 to 7.30"}
{"SMILES NOTATION": "Cn1cc(-c2cc(NC(=O)CCC3CCN(c4ccc(C(=O)N[C@H]5CC[C@H](Oc6ccc(C#N)c(Cl)c6)CC5)nn4)CC3)ccc2Oc2ccc(F)cc2F)c2cc[nH]c2c1=O", "ENDPOINT VALUE": "5.60 to 6.30"}

###

# STUDY SYSTEM: BRD4-BD1 (Homo sapiens (Human), UniProt O60885)
# TEST METHOD NOTES: bromoKdELECT assay for binding affinity to BRD4-BD1
# CONDITION: 11-point 3-fold dilution

{"SMILES NOTATION": "CCS(=O)(=O)c1ccc(Oc2ccc(CCC3CCN(c4ccc(C(=O)N[C@H]5CC[C@H](Oc6ccc(C#N)c(Cl)c6)CC5)nn4)CC3)c(F)c2)c(-c2cn(C)c(=O)c3[nH]ccc23)c1", "Kd": "> 2500 nM"}
{"SMILES NOTATION": "CN(c1ccc(Oc2ccc(C(C)(C)O)cc2-c2cn(C)c(=O)c3[nH]ccc23)cc1)C1CCN(c2ccc(C(=O)N[C@H]3CC[C@H](Oc4ccc(C#N)c(Cl)c4)CC3)nn2)CC1", "Kd": "50 to 500 nM"}
{"SMILES NOTATION": "CCS(=O)(=O)c1ccc(Oc2ccc(CCC3CCN(c4ccc(C(=O)N[C@H]5CC[C@H](Oc6ccc(C#N)c(Cl)c6)CC5)nn4)CC3)nc2)c(-c2cn(C)c(=O)c3[nH]ccc23)c1", "Kd": "50 to 500 nM"}
{"SMILES NOTATION": "CCS(=O)(=O)c1ccc(Oc2ccc(CN3CC4(CCN(c5ccc(C(=O)N[C@H]6CC[C@H](Oc7ccc(C#N)c(Cl)c7)CC6)nn5)CC4)C3)cc2)c(-c2cn(C)c(=O)c3[nH]ccc23)c1", "Kd": "< 50 nM"}
{"SMILES NOTATION": "CCS(=O)(=O)Nc1ccc(Oc2cccc(OCCOCCOCCOCCOCCOC3CCN(c4ccc(C(=O)N[C@H]5CC[C@H](Oc6ccc(C#N)c(Cl)c6)CC5)nn4)CC3)c2)c(-c2cn(C)c(=O)c3[nH]ccc23)c1", "Kd": "< 50 nM"}
{"SMILES NOTATION": "CCS(=O)(=O)Nc1ccc(Oc2ccc(CCC3CCN(c4ccc(C(=O)N[C@H]5CC[C@H](Oc6ccc(C#N)c(Cl)c6)CC5)nn4)CC3)cc2)c(-c2cn(C)c(=O)c3[nH]ccc23)c1", "Kd": "500 to 2500 nM"}
{"SMILES NOTATION": "CCS(=O)(=O)c1ccc(Oc2cccc(OCCC3CCN(c4ccc(C(=O)N[C@H]5CC[C@H](Oc6ccc(C#N)c(Cl)c6)CC5)nn4)CC3)c2F)c(-c2cn(C)c(=O)c3[nH]ccc23)c1", "Kd": "500 to 2500 nM"}
{"SMILES NOTATION": "CCS(=O)(=O)c1ccc(Oc2ccc(COC3CCN(c4ccc(C(=O)N[C@H]5CC[C@H](Oc6ccc(C#N)c(Cl)c6)CC5)nn4)CC3)c(F)c2F)c(-c2cn(C)c(=O)c3[nH]ccc23)c1", "Kd": "> 2500 nM"}
{"SMILES NOTATION": "CCS(=O)(=O)Cc1ccc(Oc2cccc(OCCCC3CCN(c4ccc(C(=O)N[C@H]5CC[C@H](Oc6ccc(C#N)c(Cl)c6)CC5)nn4)CC3)c2F)c(-c2cn(C)c(=O)c3[nH]ccc23)c1", "Kd": "500 to 2500 nM"}
{"SMILES NOTATION": "CCS(=O)(=O)c1ccc(Oc2cccc(CCCC3CCN(c4ccc(C(=O)N[C@H]5CC[C@H](Oc6ccc(C#N)c(Cl)c6)CC5)nn4)CC3)c2F)c(-c2cn(C)c(=O)c3[nH]ccc23)c1", "Kd": "50 to 500 nM"}

###

# STUDY SYSTEM: progesterone receptor (Homo sapiens)
# Sequence (P06401 whole entry, looked up): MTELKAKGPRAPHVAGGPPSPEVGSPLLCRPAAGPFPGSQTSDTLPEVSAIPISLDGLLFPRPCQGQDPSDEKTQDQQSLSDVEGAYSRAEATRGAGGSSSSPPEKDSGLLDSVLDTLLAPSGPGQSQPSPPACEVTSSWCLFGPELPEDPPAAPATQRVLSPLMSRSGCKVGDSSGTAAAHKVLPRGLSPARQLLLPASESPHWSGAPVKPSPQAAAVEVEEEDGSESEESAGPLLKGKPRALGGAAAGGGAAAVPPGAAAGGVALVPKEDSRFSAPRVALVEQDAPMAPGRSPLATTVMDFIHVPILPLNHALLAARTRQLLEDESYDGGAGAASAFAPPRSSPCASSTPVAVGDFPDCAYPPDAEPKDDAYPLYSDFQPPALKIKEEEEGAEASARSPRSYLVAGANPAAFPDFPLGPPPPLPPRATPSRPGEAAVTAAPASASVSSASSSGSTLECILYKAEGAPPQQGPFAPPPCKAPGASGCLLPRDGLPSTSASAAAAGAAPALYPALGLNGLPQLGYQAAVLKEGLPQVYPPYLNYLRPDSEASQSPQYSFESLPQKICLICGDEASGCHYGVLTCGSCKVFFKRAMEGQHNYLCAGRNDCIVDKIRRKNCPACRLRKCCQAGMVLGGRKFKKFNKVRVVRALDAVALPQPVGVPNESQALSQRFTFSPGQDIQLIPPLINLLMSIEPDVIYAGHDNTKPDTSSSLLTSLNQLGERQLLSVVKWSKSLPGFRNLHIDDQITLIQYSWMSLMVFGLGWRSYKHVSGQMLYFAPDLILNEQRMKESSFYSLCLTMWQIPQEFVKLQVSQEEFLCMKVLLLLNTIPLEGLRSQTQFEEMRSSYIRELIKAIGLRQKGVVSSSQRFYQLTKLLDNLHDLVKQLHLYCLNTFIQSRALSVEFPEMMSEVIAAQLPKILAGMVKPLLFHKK
# TEST METHOD NOTES: PR Human Progesterone NHR Binding (Agonist Radioligand) Assay, [3H]progesterone, T47D cytosol
# CONDITION: 0.5 nM [3H]progesterone, T47D cytosolic fractions, 1 hour at 4° C., legend words it as Kd
pKi: −log10 of the molar value.

{"SMILES NOTATION": "CCS(=O)(=O)Cc1ccc(Oc2cccc(OCCOC3CCN(c4cnc(C(=O)N[C@H]5CC[C@H](Oc6ccc(C#N)c(Cl)c6)CC5)cn4)CC3)c2F)c(-c2cn(C)c(=O)c3[nH]ccc23)c1", "pKi": "5.60 to 6.30"}
{"SMILES NOTATION": "CCS(=O)(=O)Nc1ccc(Oc2cccc(OCCOC3CCN(c4ccc(C(=O)N[C@H]5CC[C@H](Oc6ccc(C#N)c(Cl)c6)CC5)nn4)CC3)c2)c(-c2cn(C)c(=O)c3[nH]ccc23)c1", "pKi": "5.60 to 6.30"}

###

# System: T47D cells
# TEST METHOD NOTES: Cellular growth inhibition assay for T47D cells, CellTiter-Glo
# Assay type: cell-based, human
# CONDITION: 72 hours treatment, CellTiter-Glo 2.0
Examples of molecules with documented GI50 follow.
METRIC: GI50

{"MOLECULE": "Cn1cc(-c2cc(C(C)(C)O)ccc2Oc2ccc(CCCCC3CN(c4ccc(C(=O)N[C@H]5CC[C@H](Oc6ccc(C#N)c(Cl)c6)CC5)nn4)C3)cc2)c2cc[nH]c2c1=O [I-133]", "ENDPOINT VALUE": "< 500 nM"}
{"MOLECULE": "Cn1cc(-c2cc(C(C)(C)O)ccc2Oc2ccc(OCC3CCN(c4ccc(C(=O)N[C@H]5CC[C@H](Oc6ccc(C#N)c(Cl)c6)CC5)nn4)CC3)cc2)c2cc[nH]c2c1=O [I-96]", "ENDPOINT VALUE": "< 500 nM"}
{"MOLECULE": "CN(CCCCc1ccc(Oc2ccc(C(C)(C)O)cc2-c2cn(C)c(=O)c3[nH]ccc23)cc1)c1ccc(C(=O)N[C@H]2CC[C@H](Oc3ccc(C#N)c(Cl)c3)CC2)nn1 [I-122]", "ENDPOINT VALUE": "< 500 nM"}
{"MOLECULE": "Cn1cc(-c2cc(C(C)(C)O)ccc2Oc2ccc(CCC3CC4(C3)CN(c3ccc(C(=O)N[C@H]5CC[C@H](Oc6ccc(C#N)c(Cl)c6)CC5)nn3)C4)cc2)c2cc[nH]c2c1=O [I-126]", "ENDPOINT VALUE": "< 500 nM"}
{"MOLECULE": "Cn1cc(-c2cc(C(C)(C)O)ccc2Oc2ccc(CCC3CCN(c4ccc(C(=O)N[C@H]5CC[C@H](Oc6ccc(C#N)c(Cl)c6)CC5)nn4)CC3)c(F)c2)c2cc[nH]c2c1=O [I-113]", "ENDPOINT VALUE": "500 to 1500 nM"}
